Target: Vasopressin V1a/V2 (Homo sapiens) (UniProt P30518+P37288)
Sequence (P30518 whole entry, looked up): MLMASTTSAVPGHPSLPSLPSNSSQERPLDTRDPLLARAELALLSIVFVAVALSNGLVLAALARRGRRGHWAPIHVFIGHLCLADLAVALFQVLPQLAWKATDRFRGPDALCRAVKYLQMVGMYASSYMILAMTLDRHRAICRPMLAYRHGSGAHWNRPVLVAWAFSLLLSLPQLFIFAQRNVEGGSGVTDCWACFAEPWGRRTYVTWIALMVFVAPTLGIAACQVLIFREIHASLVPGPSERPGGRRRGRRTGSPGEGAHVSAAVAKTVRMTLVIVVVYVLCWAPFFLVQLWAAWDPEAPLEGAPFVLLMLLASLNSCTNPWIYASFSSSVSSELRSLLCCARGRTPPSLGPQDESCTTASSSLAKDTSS
Sequence (P37288 whole entry, looked up): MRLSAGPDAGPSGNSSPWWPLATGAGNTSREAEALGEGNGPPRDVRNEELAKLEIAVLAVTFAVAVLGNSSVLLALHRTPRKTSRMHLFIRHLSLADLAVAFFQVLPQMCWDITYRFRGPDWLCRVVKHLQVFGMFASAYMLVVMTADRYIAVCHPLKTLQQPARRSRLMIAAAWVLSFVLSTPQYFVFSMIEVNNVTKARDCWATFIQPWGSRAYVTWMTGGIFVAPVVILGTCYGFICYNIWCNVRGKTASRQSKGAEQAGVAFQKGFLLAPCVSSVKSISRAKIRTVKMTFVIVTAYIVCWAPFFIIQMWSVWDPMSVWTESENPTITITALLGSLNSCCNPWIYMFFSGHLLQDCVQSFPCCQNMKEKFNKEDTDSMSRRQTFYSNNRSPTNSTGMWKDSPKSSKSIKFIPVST
Assay: Selectivity ratio of EC50 for human vasopressin V2 receptor to EC50 for human vasopressin V1a receptor
Bridge positions count the residues as written; N and C are the ends. Square brackets hold non-standard residues; d marks the D form. Peptide text beside a SMILES is read from it. * marks the point of attachment. Ala(2-furyl) = N[C@@H](Cc1ccco1)C(=O)O; Orn(Pr) = CCCNCCC[C@H](N)C(=O)O; Aad = N[C@@H](CCCC(=O)O)C(=O)O; Orn = NCCC[C@H](N)C(=O)O; Dab = NCC[C@H](N)C(=O)O; NHiBu = CC(C)CN*
observed.property: Ratio EC50
Give bare numbers.

Take a look at these entries with their results.
>>> observed_measurement("CCCNCCC[C@H](NC(=O)[C@@H]1CCCN1C(=O)[C@@H]1CSSC[C@H](N)C(=O)N[C@@H](Cc2ccccc2)C(=O)N[C@@H]([C@@H](C)CC)C(=O)N[C@@H](CCC(N)=O)C(=O)N[C@@H](CC(N)=O)C(=O)N1)C(=O)NCC(N)=O (H-CFIQNCP[Orn(Pr)]G-NH2; disulfide 1-6)")
660
>>> observed_measurement("CC[C@H](C)[C@@H]1NC(=O)[C@H](Cc2ccccc2)NC(=O)[C@@H](N)CSSC[C@@H](C(=O)N2CCC[C@H]2C(=O)N[C@@H](CCN)C(=O)NCC(N)=O)NC(=O)[C@H](CC(N)=O)NC(=O)[C@H](CC(=O)NC)NC1=O (H-CFID(NHMe)NCP[Dab]G-NH2; disulfide 1-6)")
1300
>>> observed_measurement("CCNC(=O)CC[C@@H]1NC(=O)[C@H]([C@@H](C)CC)NC(=O)[C@H](Cc2ccccc2)NC(=O)[C@@H](N)CSSC[C@@H](C(=O)N2CCC[C@H]2C(=O)N[C@@H](CCCN)C(=O)NCC(N)=O)NC(=O)[C@H](CC(N)=O)NC1=O (H-CFIE(NHEt)NCP[Orn]G-NH2; disulfide 1-6)")
66
>>> observed_measurement("CC[C@H](C)[C@@H]1NC(=O)[C@H](Cc2ccco2)NC(=O)[C@@H](N)CSSC[C@@H](C(=O)N2CCC[C@H]2C(=O)N[C@@H](CCN)C(=O)NCC(N)=O)NC(=O)[C@H](CC(N)=O)NC(=O)[C@H](CCC(N)=O)NC1=O (H-C[Ala(2-furyl)]IQNCP[Dab]G-NH2; disulfide 1-6)")
150
>>> observed_measurement("CCNC(=O)C[C@@H]1NC(=O)[C@H]([C@@H](C)CC)NC(=O)[C@H](Cc2ccccc2)NC(=O)[C@@H](N)CSSC[C@@H](C(=O)N2CCC[C@H]2C(=O)N[C@@H](CCN)C(=O)NCC(N)=O)NC(=O)[C@H](CC(N)=O)NC1=O (H-CFID(NHEt)NCP[Dab]G-NH2; disulfide 1-6)")
590

For each entry beneath this line, provide reported Ratio EC50.
1. CC[C@H](C)[C@@H]1NC(=O)[C@H](Cc2ccccc2)NC(=O)[C@@H](N)CSSC[C@@H](C(=O)N2CCC[C@H]2C(=O)N[C@@H](CCCN)C(=O)NCC(N)=O)NC(=O)[C@H](CC(N)=O)NC(=O)[C@H](CCC(=O)NC)NC1=O (H-CFIE(NHMe)NCP[Orn]G-NH2; disulfide 1-6)
2. CC[C@H](C)[C@@H]1NC(=O)[C@H](Cc2ccccc2)NC(=O)[C@@H](N)CSSC[C@@H](C(=O)N2CCC[C@H]2C(=O)N[C@@H](CCCN)C(=O)NCC(N)=O)NC(=O)[C@H](CC(N)=O)NC(=O)[C@H](CCC(=O)NCC(C)C)NC1=O (H-CFIE(NHiBu)NCP[Orn]G-NH2; disulfide 1-6)
3. CC[C@H](C)[C@@H]1NC(=O)[C@H](Cc2ccccc2)NC(=O)[C@@H](N)CSSC[C@@H](C(=O)N2CCC[C@H]2C(=O)N[C@@H](CCCN)C(=O)NCC(N)=O)NC(=O)[C@H](CC(N)=O)NC(=O)[C@H](CCCC(N)=O)NC1=O (H-CFI[Aad](NH2)NCP[Orn]G-NH2; disulfide 1-6)

1. 35
2. 140
3. 1700
